# Experimental system: AAV5 (adeno-associated virus serotype 5)
# Protocol summary: SPR, AAV on CM5 chip
Measurement type: koff (s⁻¹)
Write the number in s⁻¹ without appending the unit.

>  <Binder>
A4-C3 (bispecific antibody) VQLQESGGGLVQPGGSLRLSCAASGSIFSINLMGWYRQAPGKQRELVATITRGGNTNYAGSVKGRFTISRDNAKNTVYLQMNSLRPEDTAVYYCHVDEVRQSSWTTSNLWGQGTQVTVSSGGGGSGGGGSGGGGSVQLQESGGGLVQPGGSLRLSCAASGSIFSINLMGWYRQAPGKQRELVATITRGGNTNYAGSVKGRFTISRDNAKNTVYLQMNSLRPEDTAVYYCHVDEVRQSSWTTSNLWGQGTQVTVSSGGGGSGGGGSGGGGSVQLQESGGGLVQPGGSLRLSCAASGSNFRINTMGWYRQAPGKQRELVATVTRGGSTNYADSVKGRFTISRDNPKDTVYLQMNSLRPEDTAVYYCHVDEVRESSWTTSNLWGQGTQVTVSS

>  <koff / s⁻¹>
9e-05

$$$$

Item under review: A4-C7 (bispecific antibody) VQLQESGGGLVQPGGSLRLSCAASGSNFSINTMGWYRQAPGKQRELVATVTRGGDTNYADSVKGRFTISRDNAKNTVYLQMNSLRPEDTAVYYCHVDEIRESSWTTSNLWGQGTQVTVSSGGGGSGGGGSGGGGSVQLQESGGGLVQPGGSLRLSCAASGSNFRINTMGWYRQAPGKQRELVAPVTRGGSTNYADSVKGRFTISRDNAKNTVYLQMNSLRPEDTAVYYCHVDEVRESSWTTSNLWGQGTQVTVSSGGGGSGGGGSGGGGSVQLQESGGGLVQPGGSLRLSCAASGSSFTINTMGWYRQAPGKQRELVAAVTRGGSTNYAGSVKGRFTISRDNAKNTIYLQMNSLRPEDTAVYYCHVDEIRQSSWTTSNLWGQGTQVTVSS . Reported koff?
3.2e-05

Again, but for A4-C9 (bispecific antibody) VQLQESGGGLVQPGGSLRLSCAASGSNFSINTMGWYRQAPGKQRELVATVTRGGDTNYADSVKGRFTISRDNAKNTVYLQMNSLRPEDTAVYYCHVDEIRESSWTTSNLWGQGTQVTVSSGGGGSGGGGSGGGGSVQLQESGGGLVQPGGSLRLSCAASGSNFSINTMGWYRQAPGKQRELVAALTRGGSTNYADSVKGRFTISRDNAKNTVYLQMNSLRPEDTAVYYCHVDEVRESSWTTSNLWGQGTQVTVSSGGGGSGGGGSGGGGSVQLQESGGGLVQPGGSLRLSCAASGSNFRINTMGWYRQAPGKQRELVAPVTRGGSTNYADSVKGRFTISRDNAKNTVYLQMNSLRPEDTAVYYCHVDEVRESSWTTSNLWGQGTQVTVSS
5e-05

Again, but for A4-C5 (bispecific antibody) VQLQESGGGLVQPGGSLRLSCAASGSNFRINTMGWYRQAPGKQRELVATVTRGGSTNYADSVKGRFTISRDNPKNTVYLQMNSLRPEDTAVYYCHVDEVRESSWTTSNLWGQGTQVTVSSGGGGSGGGGSGGGGSVQLQESGGGLVQPGGSLRLSCAASGSNFSINTMGWYRQAPGKQRELVATVTRGGDTNYADSVKGRFTISRDNAKNTVYLQMNSLRPEDTAVYYCHVDEIRESSWTTSNLWGQGTQVTVSSGGGGSGGGGSGGGGSVQLQESGGGLVQPGGSLRLSCAASGSNFRINTMGWYRQAPGKQRELVATVTRGGSTNYADSVKGRFTISRDNPKNTVYLQMNSLRPEDTAVYYCHVDEVRESSWTTSNLWGQGTQVTVSS
0.0013
